Kd values for the compounds below.
- SYSTEM_TESTED: Mouse Serum Albumin (Mus musculus, UniProt P07724)
- Construct: The above albumins were prepared using method IV of Cohn et al. (J. Am. Chem. Soc. 69: 1753-1761, 1947) and purified with 1× crystallization; purchased Sigma A-3559
- Sequence (P07724 25-608): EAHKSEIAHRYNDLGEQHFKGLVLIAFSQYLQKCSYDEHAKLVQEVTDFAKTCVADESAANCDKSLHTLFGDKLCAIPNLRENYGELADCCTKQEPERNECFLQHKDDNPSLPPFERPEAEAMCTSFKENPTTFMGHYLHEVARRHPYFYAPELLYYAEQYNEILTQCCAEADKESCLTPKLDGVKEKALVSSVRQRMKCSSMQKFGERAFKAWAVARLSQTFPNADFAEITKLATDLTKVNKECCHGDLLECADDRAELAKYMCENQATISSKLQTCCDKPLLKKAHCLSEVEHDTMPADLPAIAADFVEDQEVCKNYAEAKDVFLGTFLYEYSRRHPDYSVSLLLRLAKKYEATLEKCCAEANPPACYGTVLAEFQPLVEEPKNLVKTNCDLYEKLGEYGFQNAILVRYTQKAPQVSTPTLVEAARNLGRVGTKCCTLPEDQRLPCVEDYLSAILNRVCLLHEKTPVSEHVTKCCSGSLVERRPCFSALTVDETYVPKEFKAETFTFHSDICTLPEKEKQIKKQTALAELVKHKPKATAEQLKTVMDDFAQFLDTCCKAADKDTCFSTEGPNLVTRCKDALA
- ASSAY_PROTOCOL: ThermoFluor thermal shift assay with mouse serum albumin
- Type: binding
- STUDY_CONDITIONS: Example 4, Table 3

So what does the record say about Kd for CN1C(C(=O)Nc2ccccn2)=C(O)c2sccc2S1(=O)=O [Tenoxicam, tenoxicam] ? > 62.5 µM

Now try CCOC(=O)C(C)(C)Oc1ccc(Cl)cc1 [Clofibrate, clofibrate] . > 62.5 µM

Now consider O=c1c(O)c(-c2ccc(O)c(O)c2)oc2cc(O)cc(O)c12 [Quercetin, quercetin] . > 62.5 µM

Same thing, different compound: C=CC1=C(C)/C(=C/c2[nH]c(Cc3[nH]c(/C=C4\NC(=O)C(C)=C4C=C)c(C)c3CCC(=O)O)c(CCC(=O)O)c2C)NC1=O [Bilirubin, bilirubin] > 120 µM

Further, for C[C@]12CCC(=O)C=C1C=C[C@@H]1[C@@H]2CC[C@@]2(C)[C@H]1CC[C@@]2(O)CCC(=O)O [Canrenoate, canrenoate] ? > 62.5 µM

====

- SYSTEM_TESTED: Human Serum Albumin (HSA) (Homo sapiens, UniProt P02768)
- Sequence (P02768 25-609): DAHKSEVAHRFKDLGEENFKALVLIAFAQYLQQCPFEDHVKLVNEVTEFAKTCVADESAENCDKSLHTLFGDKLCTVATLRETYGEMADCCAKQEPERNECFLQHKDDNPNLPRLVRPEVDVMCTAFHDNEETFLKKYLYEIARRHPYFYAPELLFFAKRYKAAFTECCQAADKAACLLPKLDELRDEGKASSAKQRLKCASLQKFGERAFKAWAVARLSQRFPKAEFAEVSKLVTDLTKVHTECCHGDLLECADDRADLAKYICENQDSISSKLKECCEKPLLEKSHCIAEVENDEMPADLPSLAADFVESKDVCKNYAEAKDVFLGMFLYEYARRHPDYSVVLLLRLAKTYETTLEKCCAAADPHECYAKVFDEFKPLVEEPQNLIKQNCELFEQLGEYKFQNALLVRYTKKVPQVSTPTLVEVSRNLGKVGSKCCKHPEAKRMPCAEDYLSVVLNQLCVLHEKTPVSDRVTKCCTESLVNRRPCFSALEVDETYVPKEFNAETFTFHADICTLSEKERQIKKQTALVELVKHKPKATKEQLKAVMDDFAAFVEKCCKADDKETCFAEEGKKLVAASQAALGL
- ASSAY_PROTOCOL: ThermoFluor thermal shift assay with human serum albumin
- STUDY_CONDITIONS: HSA - KD, Example 3, Table 2; ThermoFluor, Equation 10b
MEASURED_PARAMETER: Kd (µM)
# value in µM; strip the unit string

Answered cases to consult:
INSERT INTO results (molecule, recorded_result) VALUES
  ('CC(C(=O)O)c1ccc(-c2ccccc2)c(F)c1 (stereo not drawn)', 2.1),
  ('O=c1c(O)c(-c2ccc(O)c(O)c2)oc2cc(O)cc(O)c12', 7.9),
  ('CC(C(=O)O)c1ccc2c(c1)[nH]c1ccc(Cl)cc12 (stereo not drawn)', 2.1),
  ('c1ccc2c(c1)[nH]c1cnccc12', 17.6),
  ('CN1C(C(=O)Nc2ccccn2)=C(O)c2sccc2S1(=O)=O', 13);

// below: Kd requested for another molecule
Name the recorded Kd for CCCNC(=O)NS(=O)(=O)c1ccc(Cl)cc1 [Chlorpropamide, chlorpropamide] . 82

====

Entries and their measured Kd follow.
- SYSTEM_TESTED: Human Serum Albumin (HSA) (Homo sapiens, UniProt P02768)
- ASSAY_PROTOCOL: ThermoFluor thermal shift assay with human serum albumin
The reply should contain only the number, in nM.

INSERT INTO assay_data (molecule, system_tested, measured_parameter, recorded_result) VALUES
  ('CCC(Cc1c(I)cc(I)c(N)c1I)C(=O)O (centres unmarked) [Iodopanoate, iodopanoate]', 'Human Serum Albumin (HSA) (Homo sapiens, UniProt P02768)', 'Kd', 633);

Attention now shifts to the item below.
Could you share which Kd value was measured for CCC(Cc1c(I)cc(I)c(O)c1I)C(=O)O (centres unmarked) [Iophenoxate, iophenoxate] ? 44

====

- SYSTEM_TESTED: Mouse Serum Albumin (Mus musculus)
- Construct: The above albumins were prepared using method IV of Cohn et al. (J. Am. Chem. Soc. 69: 1753-1761, 1947) and purified with 1× crystallization; purchased Sigma A-3559
- ASSAY_PROTOCOL: ThermoFluor thermal shift assay with mouse serum albumin
- Format: binding
- STUDY_CONDITIONS: Example 4, Table 3
Recorded Kd for the following compounds

Previously resolved entries follow.
INSERT INTO measurements (compound, recorded_result) VALUES
  ('CC(C(=O)O)c1ccc2c(c1)[nH]c1ccc(Cl)cc12 (stereo not drawn) [Carprofen, carprofen]', '1.09 µM'),
  ('Nc1ccc(S(=O)(=O)Nc2nccs2)cc1 [Sulfathiazole, sulfathiazole]', '> 62.5 µM');

Moving on to another compound below.
Looking for the measured Kd of CCCC(CCC)C(=O)O [Valproate, valproate] , can you help? > 62.5 µM
